Data origin, for the record: ChEMBL document CHEMBL3774340

# System: Transcription intermediary factor 1-alpha (Homo sapiens, UniProt O15164)
# Sequence (O15164 whole entry, the tested form may be a part): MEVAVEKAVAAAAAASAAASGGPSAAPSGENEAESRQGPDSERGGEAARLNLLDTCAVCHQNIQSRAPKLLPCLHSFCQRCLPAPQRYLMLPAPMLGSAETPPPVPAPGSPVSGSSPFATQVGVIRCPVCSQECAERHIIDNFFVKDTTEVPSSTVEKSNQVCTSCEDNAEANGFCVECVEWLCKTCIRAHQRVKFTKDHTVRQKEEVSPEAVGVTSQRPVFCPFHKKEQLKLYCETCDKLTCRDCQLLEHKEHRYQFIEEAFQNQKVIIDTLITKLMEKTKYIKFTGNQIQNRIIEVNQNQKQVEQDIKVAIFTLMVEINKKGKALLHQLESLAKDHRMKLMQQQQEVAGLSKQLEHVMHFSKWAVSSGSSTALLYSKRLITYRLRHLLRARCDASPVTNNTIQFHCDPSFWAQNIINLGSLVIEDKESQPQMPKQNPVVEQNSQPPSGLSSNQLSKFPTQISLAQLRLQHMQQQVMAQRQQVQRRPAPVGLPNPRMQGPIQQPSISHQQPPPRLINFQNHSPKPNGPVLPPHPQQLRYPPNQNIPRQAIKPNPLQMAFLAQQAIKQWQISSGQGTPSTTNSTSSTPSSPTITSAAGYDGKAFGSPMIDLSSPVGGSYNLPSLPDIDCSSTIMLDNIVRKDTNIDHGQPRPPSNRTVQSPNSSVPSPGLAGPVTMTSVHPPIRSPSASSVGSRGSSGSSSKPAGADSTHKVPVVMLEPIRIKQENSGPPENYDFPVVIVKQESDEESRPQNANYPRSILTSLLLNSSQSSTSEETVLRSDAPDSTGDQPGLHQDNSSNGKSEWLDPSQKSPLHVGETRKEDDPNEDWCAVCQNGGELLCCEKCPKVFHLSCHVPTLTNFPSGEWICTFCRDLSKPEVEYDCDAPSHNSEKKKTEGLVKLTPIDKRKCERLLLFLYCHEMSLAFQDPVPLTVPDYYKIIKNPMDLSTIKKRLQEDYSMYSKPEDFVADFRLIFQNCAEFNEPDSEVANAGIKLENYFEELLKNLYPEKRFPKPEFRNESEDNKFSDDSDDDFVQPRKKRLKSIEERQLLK
# Assay remarks: Inhibition of recombinant human His-tagged TRIM24-PHD/bromodomain expressed in Escherichia coli strains BL21 (DE3) cells using biotinylated H3K23ac (1 to 33 residues) peptide after 1 hr by AlphaScreen assay
The threshold is 40 nM. Values of IC50 beneath it are tagged class 1; values meeting or exceeding it are tagged class 0.

# Smiles record, Label value
data = [
    ("CN1C(=O)CCc2cc(NS(=O)(=O)c3ccc(C4CCCCC4)cc3)ccc21", "class 0"),
    ("COc1ccc(S(=O)(=O)Nc2cc3c(cc2Oc2cccc(OCc4ccccc4)c2)n(C)c(=O)n3C)cc1OC", "class 0"),
    ("CCCOc1cccc(Oc2cc3c(cc2NS(=O)(=O)c2ccc(OC)c(OC)c2)n(C)c(=O)n3C)c1", "class 0"),
    ("CCCOc1cc(OCCCCN)cc(Oc2cc3c(cc2NS(=O)(=O)c2cn(C)cn2)n(C)c(=O)n3C)c1", "class 1"),
    ("CCCOc1cccc(Oc2cc3c(cc2NS(=O)(=O)c2cn(C)c(C)n2)n(C)c(=O)n3C)c1", "class 0"),
]
